The entries below are paired with their reported TGI.
# Test system: ACHN renal
# assayDetails: NCI tumour cell line growth inhibition, 48 h
Express your answer in µM, writing the number without its unit.

O=C1CSC2(CC(/C=C/c3ccccc3[N+](=O)[O-])=NN2c2cccc(S(=O)(=O)O)c2)N1c1nc2ccccc2s1 (centres undefined) :: 44.2
COc1ccc(C(CC(=O)c2ccc(O)cc2)C(C(=O)c2ccc(O)cc2)C(c2ccc(OC)cc2)C2C(=O)NC(=S)NC2=O)cc1 (centres undefined) :: 43.6
C[C@H](OC(=O)/C=C/c1ccc(O)c(O)c1)[C@H](C)OC(=O)/C=C/c1ccc(O)c(O)c1 :: 30.5
CCc1cc(Cc2cc(CC)cc(C(C)(C)C)c2O)c(O)c(C(C)(C)C)c1 :: 10.4
COc1ccc(-c2nn(C(=O)c3cc(OC)c(OC)c(OC)c3)c3cc(N)ccc23)cc1 :: 2.67

Then there is this compound:
TGI lookup needed for "COc1cc2c(cc1OC)-c1c(c3ccc([N+](=O)[O-])cc3c(=O)n1CCCBr)C2=O" , thanks.
36.8

* * *

# Tested on: OVCAR-5 ovarian
# assayDetails: NCI tumour cell line growth inhibition, 48 h; in the data active = GI50 below about 0.43 µM; inactive = the rest
Valid outcomes are listed here; reply with one: active, inactive

Illustrative cases are given below, each with its answer.
N[C@@H](Cc1ccc(N(CCCl)CCCl)cc1)C(=O)O :: inactive
CC/C(=C(/c1ccc(Cl)cc1)c1ccc(OCCCN(C)C)cc1)c1ccc(OC)cc1 :: inactive
Cc1nc(N(C)C)nc(-c2cccc(-c3ccn(CCN(C)C)n3)c2)c1C :: inactive

Hey, what did the test say about "Cc1cc(=O)[nH]c2c1C(=O)C(=O)C=C2" ?
inactive

I would be grateful if you could indicate the recorded call for COc1ccc2nc3c(cc2c1)C(=O)CC(C(F)(F)F)C3 (stereo not drawn) .
inactive

Please state the recorded outcome for this molecule: "Nc1ncnc2c1c(-c1ccc(Oc3ccccc3)cc1)nn2C[C@H]1SSC[C@H]1O"
inactive

Would you mind telling me which call this test gave "COc1cc(Cl)c(C)cc1NC(=O)c1cc2ccccc2cc1O" ?
inactive

Name the outcome recorded for "N=C(N)c1ccc(-c2ccc(-c3ccccc3)o2)o1" in the assay.
inactive

Returns: the outcome recorded for "COc1ccc(S(=O)(=O)Nc2c(/C=C\c3cc(OC)c(OC)c(OC)c3)ccc(OC)c2O)cc1OC" in this assay.
inactive

* * *

# Test system: NCI-H23 lung
# assayDetails: NCI tumour cell line growth inhibition, 48 h
measurementLabel: TGI

// worked examples, TGI included
N#C[C@H](c1nc2ccccc2[nH]1)c1nc2ccccc2nc1Cl :: > 54.3 µM
O=c1c(-c2nc3ccccc3[nH]2)cc2ccccc2n1Cc1cn(Cc2ccc(F)cc2)nn1 :: 19 µM
CSc1nnc2n1-c1ccccc1SCC2 :: > 100 µM
CCCCCC(=O)OC[n+]1ccc(-c2c(COC(=O)NC(C)C)c(COC(=O)NC(C)C)c3n2CCC3)cc1 :: > 100 µM

Fill blank: measured TGI of the compound CCC1(O)CC(c2ccccc2)N(C)C(c2ccccc2)C1 (stereo not given) is ____.
> 100 µM

* * *

# Test system: NCI-H522 lung
# assayDetails: NCI tumour cell line growth inhibition, 48 h
measurementLabel: TGI (µM)
Give your result in µM as a bare value.

Some solved entries appear below for comparison.
COc1ccc(-c2cc(-c3ccncc3)nc(N)c2-c2ccc(F)cc2)cc1 :: 27.1
Cc1c(OCc2cccc3ccccc23)ccc2c(=O)cc(S)oc12 :: 89.4
Cc1nc2c(ccc3[nH]c4ccccc4c32)s1 :: 35
O=C1OCC(CN2CCC(n3c(=O)[nH]c4ccccc43)CC2)=C1c1ccccc1 :: 46.5
COc1cc(/C=C/C(=O)c2ccc(SC)cc2)cc(OC)c1OC :: 23.8

Can you share its TGI? I mean this compound: "CCOc1ccc(-n2cc(-c3ccc(N(C)C)cc3)[n+]3c2CCCCC3)cc1"
3.91

For the compound shown here, "O=C1CN2CCN(CC2)CC(=O)Nc2ccc(cc2)S(=O)(=O)c2ccc(cc2)NC(=O)CN2CCN(CC2)CC(=O)Nc2ccc(cc2)S(=O)(=O)c2ccc(cc2)N1" , give the reported TGI.
22.1

So what's the measured TGI for this one? "COc1cc(Nc2nccc(-c3cnn4ncccc34)n2)cc(OC)c1"
0.619

Return reported TGI; argument: CCOC1=NC(C(F)(F)F)(C(F)(F)F)N=C(/N=C(/N)N(C)C(C(C)C)P(=O)(OC(C)C)OC(C)C)O1 (stereo unspecified)
93.3

Could you tell me which TGI is on file for "Oc1ccccc1/C=N/N1C(=S)N(c2ccccc2)C(=Nc2ccccc2)C1=Nc1ccccc1" ?
12.6

Name the recorded TGI for "Cn1cc(C2=C(c3cn(CCCN/C(N)=N\[N+](=O)[O-])c4ccccc34)C(=O)NC2=O)c2ccccc21" .
9.99

* * *

# System: SF-268 CNS
# assayDetails: NCI tumour cell line growth inhibition, 48 h
measurementLabel: TGI

OCC1C2C=CC(O2)[C@H]1CO (stereo partly specified) :: > 100 µM
Oc1ccccc1/C=N/N1C(=S)N(c2ccccc2)C(=Nc2ccccc2)C1=Nc1ccccc1 :: 26.7 µM
Cc1ccc(Sc2cc([N+](=O)[O-])cc(Sc3ccc(C)cc3)c2Sc2ccc(C)cc2)cc1 :: > 100 µM
O=CN/C=C\c1cc(O)ccc1O :: > 57.8 µM
Cn1c(=O)c2nc3sc4ccccc4c(=N)n3c2n(C)c1=O :: > 100 µM
COc1cc(Cl)c(C)cc1NC(=O)c1cc2ccccc2cc1O :: 14.3 µM
O=C1C2Cc3ccccc3CN2C(=O)N1CCN1CCOCC1 (stereo unspecified) :: > 100 µM
COC(=O)/C=C/[C@H]1[C@H](C)N1S(=O)(=O)c1ccc(C)cc1 (stereo partly specified) :: > 100 µM

Fill in the blank: the reported TGI of "COc1ccc(S(=O)(=O)Nc2c(/C=C\c3cc(OC)c(OC)c(OC)c3)ccc(OC)c2O)cc1OC" is ____.
> 100 µM

Please report the recorded TGI for "COc1cccc(-c2nn(C)c3sc(C(=O)NCCN4CCN(c5ccccc5F)CC4)cc23)c1" .
> 100 µM

Name the recorded TGI for "O=C1CN2CCN(CC2)CC(=O)Nc2ccc(cc2)S(=O)(=O)c2ccc(cc2)NC(=O)CN2CCN(CC2)CC(=O)Nc2ccc(cc2)S(=O)(=O)c2ccc(cc2)N1" .
38.7 µM

* * *

# Test system: NCI-H522 lung
# assayDetails: NCI tumour cell line growth inhibition, 48 h
Label label 0 if TGI falls below 6 µM; label label 1 in every other case.

Worked examples, 5 molecules total:
FC1(F)SC2CCCCCCCCCCC2C1(F)F (stereo not given) :: label 1
CCOC(=O)/C(C#N)=C/c1[nH]c(C)c(C)c1C :: label 1
COc1ccc(-c2nn(C(=O)c3cc(OC)c(OC)c(OC)c3)c3cc(N)ccc23)cc1 :: label 0
CC(=O)Nc1ccc2cc3c(nc2n1)c1cccnc1n3S(=O)(=O)c1ccccc1 :: label 1
O=c1c(Br)ccc(Br)cc1Br :: label 0

API: the following record is the query input.
Does TGI meet or surpass 6 µM for CC(=O)SC(C[N+](=O)[O-])c1ccccc1 (stereo not given) ?
label 1

* * *

# Test system: PC-3 prostate
# assayDetails: NCI tumour cell line growth inhibition, 48 h
measurementLabel: TGI

Recorded results for 6 molecules are shown here.
O=C(O)Cc1ccc(-n2nnc3c(=O)[nH][nH]c(=O)c32)cc1 :: > 100 µM
O=C(O)COc1cccc2ccccc(=O)c12 :: > 100 µM
COc1ccc(/C=C2/C(=O)C(c3ccccc3)N(c3ccccc3)C2=O)cc1OC (stereo not given) :: > 10 µM
Nc1[nH]nc2c1Cc1c(n(Cc3ccc(Cl)cc3)c3ccccc13)C(=O)N2 :: 23.5 µM
C/C(=N\O)c1ccc(Nc2cc(-c3ccccc3)nc3c(O)cccc23)cc1 :: 41.9 µM
CC(=O)Oc1ccc(C2SCc3nc4ccccc4n32)cc1 (stereo not given) :: > 100 µM

# TGI lookup, item "COc1ccc(/C=C/C(=O)N[C@@H]2C(=O)N3[C@@H]2SC(C)(C)[C@@H]3C(=O)O)cc1OC"
> 100 µM

Name the reported TGI value associated with the molecule "COc1cc(-c2cc(C(=O)N3CCN(C(=O)c4ccccc4NCc4cccs4)CC3)nc3cc(-c4ccccc4)nn23)cc(OC)c1OC"
> 100 µM

Could you share which TGI value was measured for "COc1cc2oc(=O)cc(C)c2c(OC)c1OC" ?
> 100 µM

I'd like to know its TGI. The molecule in question is Cc1ccc(S(=O)(=O)N/N=C2/C3CC4CCC2C4C3)cc1 (stereo not given)
> 100 µM

* * *

# Tested on: KM12 colon
# assayDetails: NCI tumour cell line growth inhibition, 48 h
Each entry below carries its recorded TGI.

Example cases with answers are listed next.
OC1OC2COC(c3ccccc3)OC2C(O)C1O (configuration not stated) :: > 100 µM
CSc1c(C#N)c(=O)n(N)c2n[nH]c(C)c12 :: > 100 µM
Cn1cc(C2=C(c3cn(CCCN/C(N)=N\[N+](=O)[O-])c4ccccc34)C(=O)NC2=O)c2ccccc21 :: > 18.1 µM
CSc1cc(Cl)c(C)cc1S(=O)(=O)NC(=O)NNc1cnc2ccccc2n1 :: > 100 µM
CC(=O)Nc1ccc2cc3c(nc2n1)c1cccnc1n3S(=O)(=O)c1ccccc1 :: > 100 µM

Using the record for COC(=O)/C=C/[C@H]1[C@H](C)N1S(=O)(=O)c1ccc(C)cc1 (some centres not stated) , report its TGI.
> 100 µM
